Experiment: qHTS Screen of the MIPE 4.0 Collection Against Ewings Sarcoma (EW8) (AID 1259255); further: nearly all actives have a fitted effect of over 35% in size;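 on viability: 100% = DMSO-treated cells and 0% = medium-only wells without cells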
Conditions: EW8 Ewing sarcoma viability, CellTiter-Glo, 48 h; series mostly up to 45.8 µM
Inconclusive results are not listed. The source made the active and inactive calls. The call rests on the fitted dose curve; in most records, active means well fitted inhibition curve with a large enough effect; inconclusive means small, poorly fitted or top-dose-only effect; inactive means no such curve, though single readings can be large or run the other way. Non-standard residues stand in square brackets, D forms with d. Residues, ends and D or L forms follow the SMILES beside them. *: point of attachment. Nva = CCC[C@H](N)C(=O)O; Cbz = O=C(OCc1ccccc1)*
Reply using exactly one outcome from label 1 for active, label 0 for inactive

Answered cases to consult:
Hello, I am checking results. What call was entered for COC1=C2C[C@@H](C)C[C@H](OC)[C@@H](O)[C@@H](C)C=C(C)[C@H](OC(N)=O)[C@@H](OC)C=CC=C(C)C(=O)NC(=CC1=O)C2=O ?
label 1

State the result this test recorded for CC(C)C[C@H](NC(=O)CNC(=O)c1cc(Cl)ccc1Cl)B1OC(=O)CC(CC(=O)O)(C(=O)O)O1 (stereo partly drawn) .
label 1

Outcome? CCOC(=O)[C@H](CCc1ccccc1)N[C@@H](C)C(=O)N1[C@@H](C(=O)O)C[C@H]2CCC[C@@H]21
label 1

Recorded call for CC(=O)OCC(=O)[C@@]1(O)CC[C@H]2[C@@H]3CCC4=CC(=O)CC[C@]4(C)[C@@H]3C(=O)C[C@@]21C ?
label 0

Kindly provide the recorded test outcome for the following molecule: NC1=N[C@H]2[C@H](CS[C@H]2CCCCC(=O)O)N1
label 0

What outcome does the record of this test show for N[C@H]1CN(c2c(F)cc3c(=O)c(C(=O)O)cn(C4C[C@@H]4F)c3c2Cl)CC12CC2 (stereo partly drawn) ?
label 0

Just curious, what result did CC(Cc1ccc(O)c(O)c1)(NN)C(=O)O (stereo not drawn) get here?
label 0

State the result this test recorded for COc1cc(C=CC(=O)CC(=O)C=Cc2ccc(O)c(OC)c2)ccc1O .
label 1

New cases:
Which result was noted for this molecule in the test: COc1cc2c(Nc3ccc(Cl)c(Cl)c3F)ncnc2cc1OCC1C[C@@H]2CN(C)C[C@H]2C1
label 1

For this molecule, state the assay outcome: Cc1cnc(NC(=O)Nc2cc(Br)c(C)cc2OC[C@@H]2CNCCO2)cn1
label 1

How was CCC[C@@H](C=O)NC(=O)[C@H](CC(C)C)NC(=O)[C@H](CC(C)C)NC(=O)OCc1ccccc1 (Cbz-Leu-Leu-[Nva]-aldehyde) classified in this test?
label 1
